Listed here: items and their measured self-cleavage kobs at 2500 uM GlcN6P.
B1: glmS ribozyme (parent)
chain: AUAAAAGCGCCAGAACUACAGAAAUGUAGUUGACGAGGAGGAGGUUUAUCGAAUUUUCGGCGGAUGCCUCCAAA

# Variants of: B1
# Method notes: self-cleavage kobs at 2500 uM GlcN6P; higher = faster cleavage; RNA array
# Run conditions: with glucosamine-6-phosphate
This sample holds only a part of the variants without activity.

Alteration | self-cleavage kobs at 2500 uM GlcN6P
G9C G40U G41U U45G | < 1e-05 s⁻¹
A33C U56C C71A | < 1e-05 s⁻¹
C34G G38A G44U G63A | < 1e-05 s⁻¹
U45A U47A G59U C61A | < 1e-05 s⁻¹
G32U G41A G66C C68G | < 1e-05 s⁻¹
U30A G32C G62A | < 1e-05 s⁻¹
C8A U57A G63A | < 1e-05 s⁻¹
G32A U45G G51C | < 1e-05 s⁻¹
A33G U46A G59C C67G C68G | 4.87e-05 s⁻¹
G13A | 0.00057 s⁻¹
C19A U31C U45G | 0.000156 s⁻¹
U49C U57C G60A G63A | < 1e-05 s⁻¹
G32U U49C | < 1e-05 s⁻¹
A6G A39U U49C | < 1e-05 s⁻¹
U31G G41A G63U | < 1e-05 s⁻¹
U30C U45G C70U | 7.88e-05 s⁻¹
A14C G63C U69G | 4.71e-05 s⁻¹
C34U G63C | < 1e-05 s⁻¹
A6C G7U | < 1e-05 s⁻¹
A33C C34G C71U | < 1e-05 s⁻¹
G35C G41U G51C | < 1e-05 s⁻¹
C58U C71U | 3.66e-05 s⁻¹
A6G C34U G40C | < 1e-05 s⁻¹
C50A G51U U55C | < 1e-05 s⁻¹
C50A C70A | 5.27e-05 s⁻¹
C8A C50G C58G G62A | 0.000345 s⁻¹
C16A G59U A64U C67G | < 1e-05 s⁻¹
A12G C58U | 1.67e-05 s⁻¹
G37A A39U | 0.000838 s⁻¹
